System: Oryza sativa, (L.) Tebonnet
methodDescription: Rice tolerance to post-transplant applications under flooded paddy conditions (Example 187), ORYSAT (Rice, Tebonnet)
assaySetup: 0.1250 kg/ha, rated three to four weeks after treatment
herbicidal effect rating, ORYSAT (rice tolerance) listing for selected molecules.
readoutLabel: herbicidal effect rating, ORYSAT (rice tolerance)

>>> print(df.to_string())
                                   molecule  value
0  Cc1ccc(OCC(=O)NS(C)(=O)=O)c(-c2nsc3ccc(-n4c(=O)cc(C(F)(F)F)n(C)c4=O)cc23)c1 [Example 121]    6.0
1  COc1ccc(C)cc1-c1nsc2ccc(-n3c(=O)cc(C(F)(F)F)n(C)c3=O)cc12 [Example 1]    5.3
2  COc1ccc(C)cc1-c1nsc2ccc(-n3c(=O)cc(C)n(C)c3=O)cc12 [Example 24]    3.0
3  CCOCc1nsc2ccc(-n3c(=O)cc(C(F)(F)F)n(C)c3=O)cc12 [Example 195]    9.0

====

System: Oryza sativa, (L.) Tebonnet
methodDescription: Rice tolerance to post-transplant applications under flooded paddy conditions (Example 188), ORYSAT (Rice, Tebonnet)
assaySetup: Rate 0.0320 kg/ha, rated three to four weeks after treatment
Values of herbicidal effect rating, ORYSAT (rice tolerance) greater than or equal to 1 map to condition met; values below map to condition not met.

                             smilesnotation         labelvalue
0  COc1cc2c(cc1-c1nsc3ccc(-n4c(=O)cc(C(F)(F)F)n(C)c4=O)cc13)CCC2      condition met
1  CC(C)Oc1cccc(-c2nsc3ccc(-n4c(=O)cc(C(F)(F)F)n(C)c4=O)cc23)c1      condition met
2  COC(=O)COc1ccc(C)cc1-c1noc2cc(F)c(-n3c(=O)cc(C(F)(F)F)n(C)c3=O)cc12      condition met
3  Cc1ccc(OCC(=O)OCC2(c3ccccc3)CC2)c(-c2nsc3ccc(-n4c(=O)cc(C(F)(F)F)n(C)c4=O)cc23)c1  condition not met
4  COC(=O)COc1ccc(C)cc1-c1noc2ccc(-n3c(=O)cc(C(F)(F)F)n(C)c3=O)c(Cl)c12  condition not met
5  Cn1c(C(F)(F)F)cc(=O)n(-c2ccc3snc(C(=O)C(C)(C)C)c3c2)c1=O      condition met

====

System: Oryza sativa, (L.) Tebonnet
methodDescription: Rice tolerance to post-transplant applications under flooded paddy conditions (Example 187), ORYSAT (Rice, Tebonnet); on herbicidal effect rating ORYSAT: meaning of each grade not given here
assaySetup: Rate 0.2500 kg/ha, rated 3-4 weeks after treatment
readoutLabel: herbicidal effect rating ORYSAT

                                    compound                 testedtarget  value
 0  CCOC(=O)c1ccc(NC(=O)C(C)Oc2ccc(C)cc2-c2nsc3ccc(-n4c(=O)cc(C(F)(F)F)n(C)c4=O)cc23)cc1 (centres unmarked)  Oryza sativa, (L.) Tebonnet    0.0
 1  Cc1ccc(OCC(=O)NS(=O)(=O)C(C)C)c(-c2nsc3ccc(-n4c(=O)cc(C(F)(F)F)n(C)c4=O)cc23)c1  Oryza sativa, (L.) Tebonnet    4.0
 2  CCS(=O)(=O)NC(=O)COc1ccccc1-c1nsc2ccc(-n3c(=O)cc(C(F)(F)F)n(C)c3=O)cc12  Oryza sativa, (L.) Tebonnet    9.0
 3  C=CS(=O)(=O)NC(=O)COc1ccccc1-c1nsc2ccc(-n3c(=O)cc(C(F)(F)F)n(C)c3=O)cc12  Oryza sativa, (L.) Tebonnet    9.0
 4  C=CCOC(=O)/C=C/c1nsc2ccc(-n3c(=O)cc(C(F)(F)F)n(C)c3=O)cc12  Oryza sativa, (L.) Tebonnet    6.0
 5  C=CCOC(=O)C(C)(C)Oc1ccc(C)cc1-c1nsc2ccc(-n3c(=O)cc(C(F)(F)F)n(C)c3=O)cc12  Oryza sativa, (L.) Tebonnet    9.0
 6  Cc1ccc(OC(C)(C)C(=O)OCC(F)(F)F)c(-c2nsc3ccc(-n4c(=O)cc(C(F)(F)F)n(C)c4=O)cc23)c1  Oryza sativa, (L.) Tebonnet    9.0
 7  CC=CCOC(=O)C(C)(C)Oc1ccc(C)cc1-c1nsc2ccc(-n3c(=O)cc(C(F)(F)F)n(C)c3=O)cc12  Oryza sativa, (L.) Tebonnet    9.0
 8  Cc1ccc(OCC(=O)OCC(C)(C)Cc2ccccc2)c(-c2nsc3ccc(-n4c(=O)cc(C(F)(F)F)n(C)c4=O)cc23)c1  Oryza sativa, (L.) Tebonnet    4.0
 9  Cc1ccc(OCC(=O)OCC2(c3ccccc3)CC2)c(-c2nsc3ccc(-n4c(=O)cc(C(F)(F)F)n(C)c4=O)cc23)c1  Oryza sativa, (L.) Tebonnet    3.0
10  Cc1ccc(OC(C)(C)C(=O)OCCCl)c(-c2nsc3ccc(-n4c(=O)cc(C(F)(F)F)n(C)c4=O)cc23)c1  Oryza sativa, (L.) Tebonnet    9.0
11  CC(C)S(=O)(=O)NC(=O)COc1ccccc1-c1nsc2ccc(-n3c(=O)cc(C(F)(F)F)n(C)c3=O)cc12  Oryza sativa, (L.) Tebonnet    9.0
12  C#CCOC(=O)C(C)(C)Oc1ccc(C)cc1-c1nsc2ccc(-n3c(=O)cc(C(F)(F)F)n(C)c3=O)cc12  Oryza sativa, (L.) Tebonnet    9.0
13  C=CCOCC(CC)(COCC=C)COC(=O)COc1ccc(C)cc1-c1nsc2ccc(-n3c(=O)cc(C(F)(F)F)n(C)c3=O)cc12  Oryza sativa, (L.) Tebonnet    0.0
